Molecular target: Adenosine receptor A2b (Homo sapiens)
Sequence (P29275 whole entry): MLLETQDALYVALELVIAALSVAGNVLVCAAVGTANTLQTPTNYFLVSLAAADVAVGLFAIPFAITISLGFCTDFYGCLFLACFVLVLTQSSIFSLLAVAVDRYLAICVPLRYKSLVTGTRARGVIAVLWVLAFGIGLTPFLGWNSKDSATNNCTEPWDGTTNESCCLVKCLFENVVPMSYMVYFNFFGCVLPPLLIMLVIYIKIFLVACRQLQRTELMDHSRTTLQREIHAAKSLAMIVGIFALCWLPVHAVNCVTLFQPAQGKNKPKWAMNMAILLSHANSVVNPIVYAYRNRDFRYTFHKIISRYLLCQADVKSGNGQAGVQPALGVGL
Experiment: Displacement of [3H]ZM-241385 from human recombinant adenosine A2B receptor expressed in HEK293 cells
measurement.type: Ki (nM)

Cn1c(=O)n(CC2CC2)c(=O)c2[nH]c(-c3cnn(Cc4cccc(F)c4)c3)nc21: 7
CCCn1c(=O)c2[nH]c(-c3cn[nH]c3)nc2n(CC)c1=O: 49
CCn1c(=O)c2[nH]c(-c3cnn(Cc4cccc(F)c4)c3)nc2n(C)c1=O: 6
CCCn1c(=O)c2[nH]c(-c3cnn(Cc4cccc(C(F)(F)F)c4)c3)nc2n(C)c1=O: 14
CC(C)Cn1c(=O)c2[nH]c(-c3cnn(Cc4cccc(F)c4)c3)nc2n(C)c1=O: 60
CCn1c(=O)n(CC2CC2)c(=O)c2[nH]c(-c3cnn(Cc4ccc(C(F)(F)F)nc4)c3)nc21: 16
CCCn1c(=O)c2[nH]c(-c3cnn(Cc4ccc(C(F)(F)F)nc4)c3)nc2n(CC)c1=O: 18

P: CCCn1c(=O)c2[nH]c(-c3cnn(Cc4cccc(F)c4)c3)nc2n(C)c1=O
Q: CCCn1c(=O)c2[nH]c(-c3cnn(Cc4noc(-c5ccc(Cl)cc5)n4)c3)nc2n(CC)c1=O
Please tell me which of the two, P or Q , has the higher reported Ki value. Respond with the label that goes with your answer.
Q
